Recorded Ratio CC50/EC50, one value per entry.
Species on record: Homo sapiens
Assay: Selectivity index, ratio of CC50 for human HEK293T cells transfected with DYRK1A co-tranfected with Renilla plasmid, pGL3-NFAT and NFATc1 assessed as reduction in luciferase activity by measuring cell number to EC50 for human DYRK1A transfected in HEK293T cells co-transfected with Renilla plasmid, pGL3-NFAT and NFATc1 assessed as derepression of NFAT-dependent luciferase activity measured after 48 hrs by luciferase assay
Type: cell-based

Answered cases to consult:
> print(dat)
                      smiles.representation  reported.measurement
1  CCOC(=O)c1cnc2ccc(-c3cc(Cl)c(O)c(Cl)c3)nc2c1N1CCC(C)CC1                  > 82
2  CN(C)C[C@H]1CC[C@H](Nc2c(C(=O)N3CCOCC3)cnc3ccc(-c4cc(Cl)c(O)c(Cl)c4)nc23)CC1                  > 16

Field: next compound
What value of Ratio CC50/EC50 has been recorded for this entry: `CCNC(=O)c1cnc2ccc(-c3ccnc(N)c3)nc2c1N[C@H]1CC[C@H](CN(C)C)CC1` > 216

----------
Recorded t1/2, one value per entry.
Test: Half life in mouse liver microsomes at 1 uM preincubated for 10 mins followed by NADPH addition and measured up to 40 mins by LC-MS/MS analysis
Format: ADME, Microsome

> print(dat)
                      smiles.representation  reported.measurement
1  CCOC(=O)c1cnc2ccc(-c3cc(Cl)c(O)c(Cl)c3)nc2c1N[C@H]1CC[C@H](CC(N)=O)CC1              > 2.65 h
2  CCOC(=O)c1cnc2ccc(-c3cc(Cl)c(O)c(Cl)c3)nc2c1N[C@H]1CC[C@H](C(=O)N(C)C)CC1              > 2.65 h

Field: next compound
What value of t1/2 has been recorded for this entry: `CCCCNC(=O)c1cnc2ccc(-c3cc(Cl)c(O)c(Cl)c3)nc2c1N[C@H]1CC[C@H](C(=O)N2CCOCC2)CC1` > 2.65 h

----------
Test system: HEK-293T
Experiment: Cytotoxicity against human HEK293T cells transfected with DYRK1A co-tranfected with Renilla plasmid, pGL3-NFAT and NFATc1 assessed as reduction in luciferase activity by measuring cell number
Assay type: cell-based
Conditions: hek-293t
Metric Name: CC50

Answered cases to consult:
> print(dat)
                      smiles.representation  metric.name  reported.measurement
1  CCOC(=O)c1cnc2ccc(-c3ccc(O)cc3)nc2c1N[C@H]1CC[C@H](CN(C)C)CC1         CC50               > 10 µM
2  CCNC(=O)c1cnc2ccc(-c3ccnc(N)c3)nc2c1N[C@H]1CC[C@H](CN(C)C)CC1         CC50               > 10 µM

Field: next compound
What value of CC50 has been recorded for this entry: `CN(C)C[C@H]1CC[C@H](Nc2c(C#N)cnc3ccc(-c4cc(Cl)c(O)c(Cl)c4)nc23)CC1` > 10 µM

----------
Target: Dual specificity tyrosine-phosphorylation-regulated kinase 1A (Homo sapiens, UniProt Q13627)
Assay: Inhibition of human DYRK1A transfected in HEK293T cells co-transfected with Renilla plasmid, pGL3-NFAT and NFATc1 assessed as derepression of NFAT-dependent luciferase activity measured after 48 hrs by luciferase assay
// boundary case: EC50 equal to 100 nM maps to condition not met; strictly smaller maps to condition met

Examples from the recorded data:
> print(dat)
                      smiles.representation  qualitative.label
1  CCOC(=O)c1cnc2ccc(-c3cc(C)nc(C)c3)nc2c1N[C@H]1CC[C@H](CN(C)C)CC1  condition not met
2  CCOC(=O)c1cnc2ccc(-c3cc(Cl)c(O)c(Cl)c3)nc2c1N1CCC(C)CC1  condition not met
3  CC(=O)NC[C@H]1CC[C@H](Nc2c(CO)cnc3ccc(-c4cc(Cl)c(O)c(Cl)c4)nc23)CC1      condition met

is_below(EC50, 100 nM) for `CCOC(=O)c1cnc2ccc(-c3ccc(O)nc3)nc2c1N[C@H]1CC[C@H](CN(C)C)CC1` ? condition not met

Same for `CCOC(=O)c1cnc2ccc(-c3cc(Cl)c(O)c(Cl)c3)nc2c1NC1CCN(C)CC1` condition met

Same for `CCOC(=O)c1cnc2ccc(-c3ccnc(N)c3)nc2c1N[C@H]1CC[C@H](CN2CCCCC2)CC1` condition not met

Same for `CNC(=O)c1cnc2ccc(-c3cc(Cl)c(O)c(Cl)c3)nc2c1N[C@H]1CC[C@H](CN(C)C)CC1` condition met

Same for `CCCNC(=O)c1cnc2ccc(-c3cc(Cl)c(O)c(Cl)c3)nc2c1N[C@H]1CC[C@H](CN(C)C)CC1` condition met

Same for `CCOC(=O)c1cnc2ccc(-c3cc(Cl)c(O)c(Cl)c3)nc2c1Nc1ccc(CN(C)C)cc1` condition met

----------
Organism: Homo sapiens
Test: Selectivity index, ratio of CC50 for human HEK293T cells transfected with DYRK1A co-tranfected with Renilla plasmid, pGL3-NFAT and NFATc1 assessed as reduction in luciferase activity by measuring cell number to EC50 for human DYRK1A transfected in HEK293T cells co-transfected with Renilla plasmid, pGL3-NFAT and NFATc1 assessed as derepression of NFAT-dependent luciferase activity measured after 48 hrs by luciferase assay
Type: cell-based
Metric Name: Ratio CC50/EC50

> print(dat)
                      smiles.representation      metric.name  reported.measurement
1  CCOC(=O)c1cnc2ccc(-c3ccc(C(=O)O)cc3)nc2c1N[C@H]1CC[C@H](CN(C)C)CC1  Ratio CC50/EC50                  > 10
2  NC(=O)[C@H]1CC[C@H](Nc2c(CO)cnc3ccc(-c4cc(Cl)c(O)c(Cl)c4)nc23)CC1  Ratio CC50/EC50                  > 15
3  CCOC(=O)c1cnc2ccc(-c3ccc(C(N)=O)cc3)nc2c1N[C@H]1CC[C@H](CN(C)C)CC1  Ratio CC50/EC50                   > 2

What value of Ratio CC50/EC50 has been recorded for this entry: `CCOC(=O)c1cnc2ccc(-c3ccc(N)cc3)nc2c1N[C@H]1CC[C@H](CN(C)C)CC1` > 5

Same for `CCOC(=O)c1cnc2ccc(-c3cc(Cl)c(O)c(Cl)c3)nc2c1N[C@H]1CC[C@H](C(N)=O)CC1` > 8

Same for `CCOC(=O)c1cnc2ccc(-c3ccc(O)nc3)nc2c1N[C@H]1CC[C@H](CN(C)C)CC1` > 7.5

Same for `CCOC(=O)c1cnc2ccc(-c3ccnc(C)c3)nc2c1N[C@H]1CC[C@H](CN(C)C)CC1` > 7

----------
Molecular target: Dual specificity tyrosine-phosphorylation-regulated kinase 1A (Homo sapiens, UniProt Q13627)
Experiment: Inhibition of human DYRK1A transfected in HEK293T cells co-transfected with Renilla plasmid, pGL3-NFAT and NFATc1 assessed as derepression of NFAT-dependent luciferase activity measured after 48 hrs by luciferase assay
Recorded pEC50, one value per entry.
Entry type: numeric. Quantity: pEC50, the -log10 of concentration in molar units.

Answered cases to consult:
> print(dat)
                      smiles.representation  reported.measurement
1  CCOC(=O)c1cnc2ccc(-c3cc(Cl)c(O)c(Cl)c3)nc2c1N[C@H]1CC[C@H](C(=O)N(C)C)CC1                  7.30
2  CCCCNC(=O)c1cnc2ccc(-c3cc(Cl)c(O)c(Cl)c3)nc2c1N[C@H]1CC[C@H](CN2CCOCC2)CC1                  8.40
3  CCOC(=O)c1cnc2ccc(-c3cc(Cl)c(O)c(Cl)c3)nc2c1N[C@H]1CC[C@H](CN2CCOCC2)CC1                  8.15
4  CCOC(=O)c1cnc2ccc(-c3cc(Cl)c(O)c(Cl)c3)nc2c1N1CCNCC1                  7.14
5  CC(=O)c1cnc2ccc(-c3cc(Cl)c(O)c(Cl)c3)nc2c1N[C@H]1CC[C@H](C(N)=O)CC1                  7.96

Field: next molecule
What value of pEC50 has been recorded for this entry: `CCOC(=O)c1cnc2ccc(-c3cc(Cl)c(O)c(Cl)c3)nc2c1N1CCOCC1` 6.98
